Values from the METLIN SMRT retention time set (Domingo-Almenara et al. 2019)

Test: gradient 5% acetonitrile 3 min, to 50% in 2 min, to 85% in 15 min, held 3 min, 100 µL/min
Details: column: Zorbax Extend-C18 2.1 x 50 mm; eluents: water / acetonitrile, 0.1% formic acid
RP-LC retention time vs 800 s: at or above is yes (1), below is no (0).

{"columns": ["COMPOUND", "CLASS LABEL"],
 "data": [
  ["COCCn1c(CC2CCN(C(=O)Nc3cccc(Cl)c3C)C2)nc2cccnc21 (stereo not drawn)", "no (0)"],
  ["Cc1ccc2c(c1)OCC(=O)N2Cc1nc(-c2ccccc2C)no1", "yes (1)"],
  ["O=C(NCc1ccc(F)cc1)C1CCCN(c2ccc3cc(S(=O)(=O)N4CCCC4)ccc3n2)C1 (stereo not drawn)", "no (0)"]
]}

Task: Determine whether measured RP-LC retention time meets or exceeds 800 s for `Cc1ccccc1-c1nnc(CSc2nnc(NC(=O)C(C)C)s2)o1`
Output: yes (1)

Task: Is the recorded value of RP-LC retention time equal to or greater than 800 s for this compound? `O=C1CCCc2nc(N3CCN(CCO)CC3)nc(Nc3ccccc3)c21`
Output: no (0)

Task: Evaluate `CCOC(=O)c1[nH]c(C)c(CCC(=O)N2CCC(C(=O)NC3CC3)CC2)c1C` : RP-LC retention time at minimum 800 s?
Output: no (0)
